Recorded IC50 values for a group of compounds are listed next.
Target: UniProt P21397
Sequence (P21397 1-527): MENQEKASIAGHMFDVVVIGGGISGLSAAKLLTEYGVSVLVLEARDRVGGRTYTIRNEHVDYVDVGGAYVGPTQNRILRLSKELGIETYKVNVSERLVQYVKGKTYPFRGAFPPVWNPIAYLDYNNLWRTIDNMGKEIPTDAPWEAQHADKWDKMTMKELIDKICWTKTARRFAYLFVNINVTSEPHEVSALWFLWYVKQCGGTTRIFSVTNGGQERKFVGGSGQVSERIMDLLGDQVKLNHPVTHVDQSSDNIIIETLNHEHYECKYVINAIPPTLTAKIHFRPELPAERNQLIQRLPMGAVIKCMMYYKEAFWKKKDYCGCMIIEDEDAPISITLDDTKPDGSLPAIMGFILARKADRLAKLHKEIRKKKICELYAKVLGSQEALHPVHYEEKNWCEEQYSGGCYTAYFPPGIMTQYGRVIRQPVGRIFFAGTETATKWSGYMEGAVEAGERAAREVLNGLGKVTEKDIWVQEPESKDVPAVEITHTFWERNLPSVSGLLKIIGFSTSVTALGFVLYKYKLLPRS
Assay: MAO-A inhibition (Amplex Red continuous fluorescence assay)
Type: biochemical
Conditions: 30 min pre-incubation at room temp; substrate tyramine; read-out: Human MAO-A IC50
Structures can show the parent of a compound that is named as a salt.

Solved entries (count: 6):
Cn1ccnc1-c1ccc(OC/C(=C/F)CN)cc1 [Compound 27] ... > 10 µM
NC/C(=C\F)COc1ccc(-c2ncc[nH]2)cc1 [Compound 4] ... > 10 µM
Cn1nccc1-c1ccc(OC/C(=C\F)CN)cc1 [Compound 49, hydrochloride] ... < 3 µM
NC/C(=C/F)Cn1ncc(-c2ccc(O)cc2)n1 [Compound 58, hydrochloride] ... < 3 µM
NC/C(=C/F)COc1ccc(-c2ncco2)cc1 [Compound 53, hydrochloride] ... 3 to 10 µM
CC(C)(C)NC(=O)c1ccc(NC/C(=C/F)CN)cc1 [Compound 45, hydrochloride] ... > 10 µM

(Q) # lookup: IC50 of NC/C(=C/F)COc1cnc(N2CC[C@H](O)C2)nc1 [Compound 80]
(A) > 10 µM

(Q) // query IC50 value for entry NC/C(=C\F)Cn1ncc(-c2ccc(O)cc2)n1 [Compound 57, hydrochloride]
(A) < 3 µM

(Q) Param item = CC(C)(C)NC(=O)c1ccc2c(ccn2C/C(=C/F)CN)c1 [Compound 59] ; retrieve measured IC50.
(A) > 10 µM

----------
Measured pIC50 values are reported for all entries that follow.
Target: UniProt:P27338
Sequence (P27338 1-520): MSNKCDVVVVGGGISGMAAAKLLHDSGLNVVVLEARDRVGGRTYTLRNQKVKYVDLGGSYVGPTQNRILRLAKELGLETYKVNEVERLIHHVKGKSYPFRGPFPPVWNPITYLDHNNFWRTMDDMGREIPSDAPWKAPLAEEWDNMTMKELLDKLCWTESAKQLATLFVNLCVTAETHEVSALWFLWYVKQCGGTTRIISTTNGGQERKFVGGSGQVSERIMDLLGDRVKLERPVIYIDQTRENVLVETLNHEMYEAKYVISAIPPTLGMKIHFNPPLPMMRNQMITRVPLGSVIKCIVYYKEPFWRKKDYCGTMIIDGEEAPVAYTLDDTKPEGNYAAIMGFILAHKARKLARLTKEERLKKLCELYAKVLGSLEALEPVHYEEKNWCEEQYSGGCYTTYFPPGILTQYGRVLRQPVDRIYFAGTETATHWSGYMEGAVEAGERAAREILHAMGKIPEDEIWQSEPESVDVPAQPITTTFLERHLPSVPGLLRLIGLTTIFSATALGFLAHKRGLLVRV
Test: MAO-B inhibition (Amplex Red continuous fluorescence assay)
Assay type: biochemical
Settings: 30 min pre-incubation at room temp; substrate benzylamine; read-out: Human MAO-B IC50
pIC50: −log10 of the molar value. Counter-ions that a name gives are not always drawn.

// solved cases for pIC50 follow
CC(=O)N(CC(=CF)CN)C1CCCCC1 (mixture of isomers) [Compound 31, hydrochloride] ... < 5.00
NC/C(=C\F)COc1ccc(-c2cnc[nH]2)cc1 [Compound 40] ... > 5.52

We next turn to a different compound, shown below.
(Q) Request the reported pIC50 associated with NC/C(=C\F)CN1CCc2ccccc21 [Compound 62, hydrochloride]
(A) < 5.00

Attribution: patent US20210238192A1
